Values from patent US20070117743A1

Listing of recorded log10 GI50 by entry.
- Tested on: IGROV-ET
- assay protocol: SRB colorimetric assay of cell growth and viability, IGROV-ET
- Assay type: cell-based, human
- run conditions: 48 hours exposure
Where a SMILES comes first, the peptide text is derived from it. Bridges are numbered along the chain shown (N, C = ends). [ ]: non-standard residue; d: D form. The star is where a group is joined. d(aIle) = CC[C@H](C)[C@@H](N)C(=O)O; d(aThr) = C[C@@H](O)[C@@H](N)C(=O)O; hCha = N[C@@H](CCC1CCCCC1)C(=O)O; Hexanoyl(5-Me) = CC(C)CCCC(=O)*; dCha = N[C@H](CC1CCCCC1)C(=O)O; Orn = NCCC[C@H](N)C(=O)O; Dhb = C/C=C(\N)C(=O)O
observed property: log10 GI50 (log10 of the value in nM)

1. C/C=C1\NC(=O)[C@H](Cc2ccccc2)NC(=O)[C@@H](CC2CCCCC2)NC(=O)[C@@H](CC2CCCCC2)NC(=O)[C@H](NC(=O)[C@@H](CC2CCCCC2)NC(=O)[C@H](CCCN)NC(=O)[C@H]2CCCN2C(=O)[C@H](NC(=O)[C@@H](NC(=O)[C@@H](NC(=O)[C@H](NC(=O)CCCC(C)C)C(C)C)[C@@H](C)O)C(C)C)C(C)C)[C@@H](C)OC(=O)[C@H](C(C)C)NC1=O [Compound 11, [D-Cha^4, D-Cha^5, D-Cha^7]-KF] ({Hexanoyl(5-Me)}-[dV]TV[dV][dP][Orn][dCha][d(aThr)][dCha][dCha]F[Dhb]V; ester 8-C)
2.12
2. C/C=C1\NC(=O)[C@H](Cc2ccccc2)NC(=O)[C@@H](C(C)C)NC(=O)[C@@H]([C@@H](C)CC)NC(=O)[C@H](NC(=O)[C@H](NC(=O)[C@H](CCCN)NC(=O)[C@H]2CCCN2C(=O)[C@H](NC(=O)CCCC(C)C)C(C)C)[C@@H](C)CC)[C@@H](C)OC(=O)[C@H](C(C)C)NC1=O [Compound 31, [noVal^11, noThr^12, noD-Val^13]-KF] ({Hexanoyl(5-Me)}-[dV][dP][Orn][d(aIle)][d(aThr)][d(aIle)][dV]F[Dhb]V; ester 5-C)
3.43
3. C/C=C1\NC(=O)[C@H](Cc2ccccc2)NC(=O)[C@@H](C(C)C)NC(=O)[C@@H]([C@@H](C)CC)NC(=O)[C@H](NC(=O)[C@H](NC(=O)[C@H](CCCN)NC(=O)[C@H]2CCCN2C(=O)[C@H](NC(=O)[C@H](CCC(N)=O)NC(=O)[C@@H](NC(=O)[C@H](NC(=O)CCCC(C)C)C(C)C)[C@@H](C)O)C(C)C)[C@@H](C)CC)[C@@H](C)OC(=O)[C@H](C(C)C)NC1=O [Compound 48, [Gln^11]-KF] ({Hexanoyl(5-Me)}-[dV]TQ[dV][dP][Orn][d(aIle)][d(aThr)][d(aIle)][dV]F[Dhb]V; ester 8-C)
3.82
4. C/C=C1\NC(=O)[C@H](Cc2ccccc2)NC(=O)[C@@H](C(C)C)NC(=O)[C@@H]([C@@H](C)CC)NC(=O)[C@H](NC(=O)[C@H](NC(=O)[C@H](CCCN)NC(=O)[C@H]2CCCN2C(=O)[C@H](NC(=O)[C@H](CCC2CCCCC2)NC(=O)[C@@H](NC(=O)[C@H](NC(=O)CCCC(C)C)C(C)C)[C@@H](C)O)C(C)C)[C@@H](C)CC)[C@@H](C)OC(=O)[C@H](C(C)C)NC1=O [Compound 9, [hCh^11]-KF] ({Hexanoyl(5-Me)}-[dV]T[hCha][dV][dP][Orn][d(aIle)][d(aThr)][d(aIle)][dV]F[Dhb]V; ester 8-C)
2.44
5. C/C=C1\NC(=O)[C@H](Cc2ccccc2)NC(=O)[C@@H](C(C)C)NC(=O)[C@@H]([C@@H](C)CC)NC(=O)[C@H](NC(=O)[C@H](NC(=O)[C@H](CCCN)NC(=O)[C@H]2CCCN2C(=O)[C@H](NC(=O)[C@@H](NC(=O)[C@@H](NC(=O)[C@H](NC(=O)CCCCCCC)C(C)C)[C@@H](C)O)C(C)C)C(C)C)[C@@H](C)CC)[C@@H](C)OC(=O)[C@H](C(C)C)NC1=O [Compound 18, [Oct^14]-KF]
2.17
6. C/C=C1\NC(=O)[C@H](Cc2ccccc2)NC(=O)[C@@H](C(C)C)NC(=O)[C@@H]([C@@H](C)CC)NC(=O)[C@H](NC(=O)[C@H](NC(=O)[C@H](CCCN)NC(=O)[C@H]2CCCN2C(=O)[C@H](NC(=O)[C@H](Cc2ccccc2)NC(=O)[C@@H](NC(=O)[C@H](NC(=O)CCCC(C)C)C(C)C)[C@@H](C)O)C(C)C)[C@@H](C)CC)[C@@H](C)OC(=O)[C@H](C(C)C)NC1=O [Compound 43, [Phe^11]-KF] ({Hexanoyl(5-Me)}-[dV]TF[dV][dP][Orn][d(aIle)][d(aThr)][d(aIle)][dV]F[Dhb]V; ester 8-C)
2.37
7. C/C=C1\NC(=O)[C@H](Cc2ccccc2)NC(=O)[C@@H](C(C)C)NC(=O)[C@@H]([C@@H](C)CC)NC(=O)[C@H](NC(=O)[C@H](NC(=O)[C@H](CCCN)NC(=O)[C@H]2CCCN2C(=O)[C@H](NC(=O)[C@H](CCC(=O)O)NC(=O)[C@@H](NC(=O)[C@H](NC(=O)CCCC(C)C)C(C)C)[C@@H](C)O)C(C)C)[C@@H](C)CC)[C@@H](C)OC(=O)[C@H](C(C)C)NC1=O [Compound 51, [Glu^11]-KF] ({Hexanoyl(5-Me)}-[dV]TE[dV][dP][Orn][d(aIle)][d(aThr)][d(aIle)][dV]F[Dhb]V; ester 8-C)
3.82
8. CC[C@H](C)[C@@H](NC(=O)[C@H](CCCN)NC(=O)[C@H]1CCCN1C(=O)[C@H](NC(=O)[C@@H](NC(=O)[C@@H](NC(=O)[C@H](NC(=O)CCCC(C)C)C(C)C)[C@@H](C)O)C(C)C)C(C)C)C(=O)N[C@H]1C(=O)N[C@H]([C@@H](C)CC)C(=O)N[C@H](C(C)C)C(=O)N[C@@H](Cc2ccccc2)C(=O)NCC(=O)N[C@@H](C(C)C)C(=O)O[C@@H]1C [Compound 65, [Gly^2]-KF] ({Hexanoyl(5-Me)}-[dV]TV[dV][dP][Orn][d(aIle)][d(aThr)][d(aIle)][dV]FGV; ester 8-C)
2.91
